Measured binding signal by item
MEASURED_TARGET: GST-Hu-p50 (Homo sapiens, UniProt P19838 7-356)
Sequence (P19838 7-356): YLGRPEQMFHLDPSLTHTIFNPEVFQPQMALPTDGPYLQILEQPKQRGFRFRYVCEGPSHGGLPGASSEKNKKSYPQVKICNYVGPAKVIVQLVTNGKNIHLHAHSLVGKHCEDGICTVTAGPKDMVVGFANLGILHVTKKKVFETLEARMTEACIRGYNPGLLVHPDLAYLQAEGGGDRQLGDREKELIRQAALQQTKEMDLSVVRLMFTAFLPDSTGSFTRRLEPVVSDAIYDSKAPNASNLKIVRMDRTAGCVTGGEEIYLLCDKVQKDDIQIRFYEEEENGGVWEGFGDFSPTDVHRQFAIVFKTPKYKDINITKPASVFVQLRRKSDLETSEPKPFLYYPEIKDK
ASSAY_METHOD_TEXT: protein-binding microarray (PBM); PBM: ~300 nM protein, 6 mM HEPES pH 7.8, 80 mM KCl, 0.5 mM EDTA, 0.5 mM EGTA, 6% glycerol, 35 ng/ul poly-dIdC, 1% milk, 1 h, room temperature; high values mean tight binding
ASSAY_SETUP: dsDNA, one strand shown
The reply should contain only the number, in z-score.

Consider the following illustrative entries.
>  <SEQUENCE_DATA>
CCGATTAACATCAGGAAATTCCCTGATGTTAATCGGGTCTTGATTCGCTTGACGCTGCTG

>  <UOM>
z-score

>  <binding signal>
6.16

$$$$
>  <SEQUENCE_DATA>
CCGATTAACATCAGGGGGTTTAATGATGTTAATCGGGTCTTGATTCGCTTGACGCTGCTG

>  <UOM>
z-score

>  <binding signal>
6.62

$$$$
>  <SEQUENCE_DATA>
CCGATTAACATCATGGGGGGTAATGATGTTAATCGGGTCTTGATTCGCTTGACGCTGCTG

>  <UOM>
z-score

>  <binding signal>
3.21

$$$$

Given the entry CCGATTAACATCAGGGGAGTTCATGATGTTAATCGGGTCTTGATTCGCTTGACGCTGCTG , report its measured binding signal.
4.11

For the sequence CCGATTAACATCAAGAAAATCCCTGATGTTAATCGGGTCTTGATTCGCTTGACGCTGCTG , what binding signal is on record?
4.6

----------
binding signal listing for selected sequences.
MEASURED_TARGET: GST-Co-NF-kB (Capsaspora owczarzaki, UniProt F1ARL5 200-546)
Sequence: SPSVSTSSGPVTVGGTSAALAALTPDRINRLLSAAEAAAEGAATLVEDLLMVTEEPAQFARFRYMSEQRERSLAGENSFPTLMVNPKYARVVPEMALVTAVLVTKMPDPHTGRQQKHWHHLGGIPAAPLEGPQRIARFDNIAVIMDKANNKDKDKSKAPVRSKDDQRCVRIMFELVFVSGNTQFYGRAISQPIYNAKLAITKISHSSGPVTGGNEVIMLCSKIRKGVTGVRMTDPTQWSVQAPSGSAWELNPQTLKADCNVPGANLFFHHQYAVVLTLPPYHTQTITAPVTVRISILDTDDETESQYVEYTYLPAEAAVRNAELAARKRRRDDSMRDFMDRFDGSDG
ASSAY_METHOD_TEXT: protein-binding microarray (PBM); PBM: ~300 nM protein, 6 mM HEPES pH 7.8, 80 mM KCl, 0.5 mM EDTA, 0.5 mM EGTA, 6% glycerol, 35 ng/ul poly-dIdC, 1% milk, 1 h, room temperature; high values mean tight binding
ASSAY_SETUP: dsDNA, one strand shown
Only the number, expressed in z-score, is required.

Worked set:
>  <SEQUENCE_DATA>
CCGATTAACATCAGGGGGGGGTATGATGTTAATCGGGTCTTGATTCGCTTGACGCTGCTG

>  <binding signal / z-score>
5.96

$$$$
>  <SEQUENCE_DATA>
CCGATTAACATCACATGGGAATCTGATGTTAATCGGGTCTTGATTCGCTTGACGCTGCTG

>  <binding signal / z-score>
1.08

$$$$
>  <SEQUENCE_DATA>
CCGATTAACATCAAATCCCCCCATGATGTTAATCGGGTCTTGATTCGCTTGACGCTGCTG

>  <binding signal / z-score>
7.39

$$$$
>  <SEQUENCE_DATA>
CCGATTAACATCAAATTTCCCATTGATGTTAATCGGGTCTTGATTCGCTTGACGCTGCTG

>  <binding signal / z-score>
3.32

$$$$
>  <SEQUENCE_DATA>
CCGATTAACATCAACATCCCCCCTGATGTTAATCGGGTCTTGATTCGCTTGACGCTGCTG

>  <binding signal / z-score>
5.48

$$$$

For the record CCGATTAACATCACCCATCCCCCTGATGTTAATCGGGTCTTGATTCGCTTGACGCTGCTG , what value of binding signal is listed for GST-Co-NF-kB (Capsaspora owczarzaki, UniProt F1ARL5 200-546)?
3.26

Find binding signal (GST-Co-NF-kB (Capsaspora owczarzaki, UniProt F1ARL5 200-546)) for the entry CCGATTAACATCACAAATCCCCCTGATGTTAATCGGGTCTTGATTCGCTTGACGCTGCTG
6.1

Tell me reported binding signal for CCGATTAACATCAATAAATTCCCTGATGTTAATCGGGTCTTGATTCGCTTGACGCTGCTG , tested with GST-Co-NF-kB (Capsaspora owczarzaki, UniProt F1ARL5 200-546).
4.25

Record lookup: for GST-Co-NF-kB (Capsaspora owczarzaki, UniProt F1ARL5 200-546), what binding signal belongs to CCGATTAACATCACGGAATTCCCTGATGTTAATCGGGTCTTGATTCGCTTGACGCTGCTG ?
3.4

----------
Listing: binding signal of selected sequences
MEASURED_TARGET: GST-Hu-p50 (Homo sapiens, UniProt P19838 7-356)
ASSAY_METHOD_TEXT: protein-binding microarray (PBM); PBM: ~300 nM protein, 6 mM HEPES pH 7.8, 80 mM KCl, 0.5 mM EDTA, 0.5 mM EGTA, 6% glycerol, 35 ng/ul poly-dIdC, 1% milk, 1 h, room temperature; high values mean tight binding
ASSAY_SETUP: dsDNA, one strand shown
// return numeric value only (unit: z-score, not printed)

// solved cases for binding signal follow
>  <SEQUENCE_DATA>
CCGATTAACATCAGGGTAAGTACTGATGTTAATCGGGTCTTGATTCGCTTGACGCTGCTG

>  <binding signal, z-score>
2.3

$$$$
>  <SEQUENCE_DATA>
CCGATTAACATCAGGGAAAGCACTGATGTTAATCGGGTCTTGATTCGCTTGACGCTGCTG

>  <binding signal, z-score>
3.98

$$$$
>  <SEQUENCE_DATA>
CCGATTAACATCACGAATTTCCCTGATGTTAATCGGGTCTTGATTCGCTTGACGCTGCTG

>  <binding signal, z-score>
4.46

$$$$
>  <SEQUENCE_DATA>
CCGATTAACATCACCTTTTCCCCTGATGTTAATCGGGTCTTGATTCGCTTGACGCTGCTG

>  <binding signal, z-score>
5.94

$$$$
>  <SEQUENCE_DATA>
CCGATTAACATCAGGGGGAGGAATGATGTTAATCGGGTCTTGATTCGCTTGACGCTGCTG

>  <binding signal, z-score>
4.89

$$$$
>  <SEQUENCE_DATA>
CCGATTAACATCAGGGATTTACATGATGTTAATCGGGTCTTGATTCGCTTGACGCTGCTG

>  <binding signal, z-score>
1.92

$$$$
>  <SEQUENCE_DATA>
CCGATTAACATCAGGAAATTGCCTGATGTTAATCGGGTCTTGATTCGCTTGACGCTGCTG

>  <binding signal, z-score>
1.3

$$$$
>  <SEQUENCE_DATA>
CCGATTAACATCAGGGGGAAATATGATGTTAATCGGGTCTTGATTCGCTTGACGCTGCTG

>  <binding signal, z-score>
7.38

$$$$

Endpoint output: binding signal of CCGATTAACATCAGGACGTCCCCTGATGTTAATCGGGTCTTGATTCGCTTGACGCTGCTG . Value?
4.57

Which measured binding signal value corresponds to CCGATTAACATCAGAGTTCCCCCTGATGTTAATCGGGTCTTGATTCGCTTGACGCTGCTG ?
6.39

State the recorded binding signal for this entry: CCGATTAACATCAGGATCCCCCCTGATGTTAATCGGGTCTTGATTCGCTTGACGCTGCTG
6.19

----------
MEASURED_TARGET: GST-Aq-NF-kB (Amphimedon queenslandica, UniProt A9Y5G7 2-389)
Sequence: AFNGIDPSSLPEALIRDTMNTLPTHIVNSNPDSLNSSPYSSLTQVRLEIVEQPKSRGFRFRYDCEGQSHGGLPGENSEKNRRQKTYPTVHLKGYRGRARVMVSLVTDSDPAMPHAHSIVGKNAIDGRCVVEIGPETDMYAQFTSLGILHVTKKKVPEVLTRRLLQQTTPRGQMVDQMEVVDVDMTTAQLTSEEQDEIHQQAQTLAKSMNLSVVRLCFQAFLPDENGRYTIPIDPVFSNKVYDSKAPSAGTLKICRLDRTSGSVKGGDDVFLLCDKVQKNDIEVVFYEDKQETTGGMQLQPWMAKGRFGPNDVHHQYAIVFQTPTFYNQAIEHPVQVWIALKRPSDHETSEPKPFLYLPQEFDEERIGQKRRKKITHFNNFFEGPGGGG
ASSAY_METHOD_TEXT: protein-binding microarray (PBM); PBM: ~300 nM protein, 6 mM HEPES pH 7.8, 80 mM KCl, 0.5 mM EDTA, 0.5 mM EGTA, 6% glycerol, 35 ng/ul poly-dIdC, 1% milk, 1 h, room temperature; Ap Aiptasia and Nv Nematostella (sea anemones) / Co Capsaspora / Aq Amphimedon (sponge) / Dm Drosophila / Hu human; RHD is the Rel homology domain; high values mean tight binding
ASSAY_SETUP: dsDNA, one strand shown
READOUT_KIND: binding signal (z-score)
Write the answer as a number in z-score, unit excluded.

Known results for sequences:
>  <SEQUENCE_DATA>
CCGATTAACATCAGGAAACCCCATGATGTTAATCGGGTCTTGATTCGCTTGACGCTGCTG

>  <MEASURED_TARGET>
GST-Aq-NF-kB (Amphimedon queenslandica, UniProt A9Y5G7 2-389)

>  <READOUT_KIND>
binding signal

>  <READOUT_VALUE>
4.84

$$$$
>  <SEQUENCE_DATA>
CCGATTAACATCAAAAAAGCCCCTGATGTTAATCGGGTCTTGATTCGCTTGACGCTGCTG

>  <MEASURED_TARGET>
GST-Aq-NF-kB (Amphimedon queenslandica, UniProt A9Y5G7 2-389)

>  <READOUT_KIND>
binding signal

>  <READOUT_VALUE>
8.77

$$$$

Notebook: pull reported binding signal for GST-Aq-NF-kB (Amphimedon queenslandica, UniProt A9Y5G7 2-389), entry CCGATTAACATCAAATACTTCCCTGATGTTAATCGGGTCTTGATTCGCTTGACGCTGCTG
4.24

What is its binding signal for GST-Aq-NF-kB (Amphimedon queenslandica, UniProt A9Y5G7 2-389)? Entry: CCGATTAACATCACAAATACCCCTGATGTTAATCGGGTCTTGATTCGCTTGACGCTGCTG
4.3

Please state recorded binding signal (tested on GST-Aq-NF-kB (Amphimedon queenslandica, UniProt A9Y5G7 2-389)) of CCGATTAACATCAAATCCCCCCTTGATGTTAATCGGGTCTTGATTCGCTTGACGCTGCTG
6.8

Give the reported binding signal for CCGATTAACATCAAGGGTTTTCCTGATGTTAATCGGGTCTTGATTCGCTTGACGCTGCTG (system: GST-Aq-NF-kB (Amphimedon queenslandica, UniProt A9Y5G7 2-389)).
5.2

Lab note: need binding signal with GST-Aq-NF-kB (Amphimedon queenslandica, UniProt A9Y5G7 2-389) for entry CCGATTAACATCAGGGAAACTCATGATGTTAATCGGGTCTTGATTCGCTTGACGCTGCTG , please look it up.
4.27

Lab request: please report binding signal under test system GST-Aq-NF-kB (Amphimedon queenslandica, UniProt A9Y5G7 2-389) for CCGATTAACATCAGGGGAAAGGATGATGTTAATCGGGTCTTGATTCGCTTGACGCTGCTG
4.14

Notebook: pull reported binding signal for GST-Aq-NF-kB (Amphimedon queenslandica, UniProt A9Y5G7 2-389), entry CCGATTAACATCAACTTCCCCCCTGATGTTAATCGGGTCTTGATTCGCTTGACGCTGCTG
6.32

Give GST-Aq-NF-kB (Amphimedon queenslandica, UniProt A9Y5G7 2-389) binding signal for CCGATTAACATCAGAATTACCCATGATGTTAATCGGGTCTTGATTCGCTTGACGCTGCTG
3.58

// lookup binding signal | system=GST-Aq-NF-kB (Amphimedon queenslandica, UniProt A9Y5G7 2-389) | key= CCGATTAACATCAGGAACCCCCATGATGTTAATCGGGTCTTGATTCGCTTGACGCTGCTG
5.35

I'm curious: which binding signal was measured for CCGATTAACATCAAAATATTCCGTGATGTTAATCGGGTCTTGATTCGCTTGACGCTGCTG tested on GST-Aq-NF-kB (Amphimedon queenslandica, UniProt A9Y5G7 2-389)?
1.1

Report binding signal for CCGATTAACATCAGATTTCCCCCTGATGTTAATCGGGTCTTGATTCGCTTGACGCTGCTG tested on GST-Aq-NF-kB (Amphimedon queenslandica, UniProt A9Y5G7 2-389).
7.34

Item: CCGATTAACATCAGGAACGTCCCTGATGTTAATCGGGTCTTGATTCGCTTGACGCTGCTG Test system: GST-Aq-NF-kB (Amphimedon queenslandica, UniProt A9Y5G7 2-389) Read-out: binding signal Value: ?
5.01

Form field: binding signal recorded for CCGATTAACATCAAAAAAACCCATGATGTTAATCGGGTCTTGATTCGCTTGACGCTGCTG with GST-Aq-NF-kB (Amphimedon queenslandica, UniProt A9Y5G7 2-389) (enter value)
5.47

Request body: readout binding signal, system GST-Aq-NF-kB (Amphimedon queenslandica, UniProt A9Y5G7 2-389), query CCGATTAACATCACAGTCCCCCCTGATGTTAATCGGGTCTTGATTCGCTTGACGCTGCTG . Return the value.
4.63

Form: Entry = CCGATTAACATCAGGAGTCCCCCTGATGTTAATCGGGTCTTGATTCGCTTGACGCTGCTG | System = GST-Aq-NF-kB (Amphimedon queenslandica, UniProt A9Y5G7 2-389) | binding signal = ____
6.95

Give GST-Aq-NF-kB (Amphimedon queenslandica, UniProt A9Y5G7 2-389) binding signal for CCGATTAACATCAACAAATTCCCTGATGTTAATCGGGTCTTGATTCGCTTGACGCTGCTG
4.44
